- Test system: UO-31 renal
- assay procedure: NCI-60 one-dose screen, 48 h (100 = growth as untreated, 0 = no growth, -100 = all killed)
- condition details: 10 µM
This is part of a sample that, as a whole, favours compounds with a hit. Of some 83,000 tested, about 20% had one in any assay. Activity calls are given as the source filed them. Rule for the calls: active = growth percent below 10; inactive = the rest.
Catalogue of compounds with associated growth

For orientation, consider the following solved cases.
[[record]]
structure_as_smiles = "COc1ccc(-c2cc(C(=O)N=Nc3c(O)[nH]c4ccccc34)c3ccccc3n2)cc1"
quantity = "growth"
value_measured = "24.5% (inactive)"

[[record]]
structure_as_smiles = "O=C(Nc1ccncc1)c1ccc(-n2c(=O)[nH]c3ccccc3c2=O)cc1"
quantity = "growth"
value_measured = "87.3% (inactive)"

[[record]]
structure_as_smiles = "COc1ccc(NC(=O)CSc2nnc(-c3ccc4nc(-c5ccc(Cl)cc5)[nH]c4c3)o2)cc1"
quantity = "growth"
value_measured = "63.9% (inactive)"

[[record]]
structure_as_smiles = "O=c1[nH]c2ccccc2cc1CSc1ccc(Nc2nccc(-c3ccc4ccccc4c3)n2)cc1"
quantity = "growth"
value_measured = "93.7% (inactive)"


# evaluate next
Query string: Answer with the recorded growth for the compound listed here: Cc1ccc(CSc2nc(Cl)c(C#N)c(-c3ccc(F)cc3)n2)cc1
Result string: 67.9% (inactive)

----------
- System: PC-3 prostate
- assay procedure: NCI-60 one-dose screen, 48 h (100 = growth as untreated, 0 = no growth, -100 = all killed)
- condition details: 10 µM
The panel holds about 83,000 compounds, 20% with a hit somewhere; the sample as a whole holds those more often.
quantity: growth (%)
Return type: number; implicit unit %.

[[record]]
compound = "CCOc1ccc(/C=N/NC(=O)Cn2nc(Cc3ccccc3)c3onc(C)c3c2=O)cc1"
target_under_test = "PC-3 prostate"
quantity = "growth"
value_measured = 22.5

[[record]]
compound = "O=C1Nc2ccc(F)cc2/C1=C/c1cccc(OCc2ccccc2)c1"
target_under_test = "PC-3 prostate"
quantity = "growth"
value_measured = 20.4

[[record]]
compound = "O=C(CNc1nc(-c2ccccc2)cs1)Nc1ccc(Br)cc1"
target_under_test = "PC-3 prostate"
quantity = "growth"
value_measured = -27.8

[[record]]
compound = "Cc1ccc(-c2nc(Nc3ccc(C)c(S(N)(=O)=O)c3)c3ccccc3n2)cc1"
target_under_test = "PC-3 prostate"
quantity = "growth"
value_measured = 43.9

[[record]]
compound = "COc1cc(/C=N/NC(=O)c2ccc3nc(-c4ccc(Cl)cc4)[nH]c3c2)cc(OC)c1OC"
target_under_test = "PC-3 prostate"
quantity = "growth"
value_measured = -41.6


From here, focus on the item given below.
Query string: Let me know recorded growth for CN1CCCN(Cc2ccc(C(=O)Nc3cccc(Nc4ccc5cc(O)ccc5n4)c3)cc2C(F)(F)F)CC1 , thanks.
Result string: 51.3

----------
- System: HS 578T breast
- assay procedure: NCI-60 one-dose screen, 48 h
- condition details: 10 µM
Compounds without any hit were thinned out: in the full panel of roughly 83,000, 20% have a hit. Active and inactive are the calls of the source. The calls were made as follows: active = growth percent below 10; inactive = the rest.
I would appreciate it if you answered using one of these outcomes: y (active), n (inactive)

[[record]]
structure_as_smiles = "O=c1[nH][nH]c(Nc2ccccc2)c1N=Nc1ccc(F)cc1"
label = "n"

[[record]]
structure_as_smiles = "Cc1cc(C(F)(F)F)ccc1C(=O)Nc1sc2c(c1C#N)CCC(=O)C2"
label = "y"

[[record]]
structure_as_smiles = "Cn1cc(-c2cc(N)n3nc(-c4c[nH]c5ccc(Br)cc45)cc3n2)c2cccnc21"
label = "y"

[[record]]
structure_as_smiles = "O=C(Nc1cc(Cl)cc(Cl)c1)Nc1cc(Cl)cc(Cl)c1"
label = "y"


Query string: // outcome(item) with item = Cc1cc(C)nc(/N=C(\N)Nc2ccc(S(=O)(=O)Nc3nc(C)cc(C)n3)cc2)n1
Result string: n

Cited source: PubChem BioAssay (NCI)
